Target: cyclooxygenase-2 (human osteosarcoma 143 cells) (Homo sapiens, UniProt P35354)
Construct: human osteosarcoma 143 cells (which specifically express cyclooxygenase-2); endogenous in cells; host or cells: human osteosarcoma 143 cells
Sequence (P35354 18-604): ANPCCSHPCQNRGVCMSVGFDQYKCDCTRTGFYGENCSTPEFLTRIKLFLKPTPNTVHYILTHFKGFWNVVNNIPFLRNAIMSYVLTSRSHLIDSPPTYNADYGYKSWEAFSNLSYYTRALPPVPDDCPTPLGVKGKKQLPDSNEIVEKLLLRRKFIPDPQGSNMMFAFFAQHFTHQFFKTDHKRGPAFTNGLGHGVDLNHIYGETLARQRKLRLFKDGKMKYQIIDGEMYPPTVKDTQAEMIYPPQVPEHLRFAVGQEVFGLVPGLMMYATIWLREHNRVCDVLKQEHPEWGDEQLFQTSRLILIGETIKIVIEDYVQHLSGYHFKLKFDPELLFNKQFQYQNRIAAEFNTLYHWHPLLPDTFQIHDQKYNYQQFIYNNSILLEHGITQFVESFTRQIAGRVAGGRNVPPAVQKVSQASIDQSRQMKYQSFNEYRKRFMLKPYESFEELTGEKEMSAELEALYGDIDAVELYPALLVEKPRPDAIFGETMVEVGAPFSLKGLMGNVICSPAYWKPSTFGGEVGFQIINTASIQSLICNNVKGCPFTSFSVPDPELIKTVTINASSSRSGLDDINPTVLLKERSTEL
Experiment: Inhibition of cyclooxygenase-2: PGE2 production in human osteosarcoma 143 cells, whole cell assay
Format: cell-based
Conditions: human osteosarcoma 143 cells, whole cell, PGE2 synthesis in response to arachidonic acid; read-out: Cox-2 IC50
Measured IC50, listed per entry for reference.
The response must be a number in nM with no trailing unit.

Some compounds with recorded IC50:
Cc1c(CC(C)CC(=O)O)c2cc(Cl)ccc2n1Cc1ccc(Br)cc1 (racemic)
5
COc1ccc2c(c1)c(CC1(CC(=O)O)CC1)c(C)n2Cc1ccc(Cl)cc1
9
COc1ccc2c(c1)c(CCCC(=O)O)c(C)n2Cc1ccc(Br)cc1
6

Turning to the following compound.
Inquiry: What value of measured IC50 is listed for Cc1c(CCCC(=O)O)c2cc(Br)ccc2n1Cc1ccc(Br)cc1 ?
Reply text: 6

----------
Molecular target: cyclooxygenase-1 (human U-937 cells) (Homo sapiens, UniProt P23219)
Construct: human U-937 cells (which specifically express cyclooxygenase-1); endogenous in cells
Sequence (P23219 24-599): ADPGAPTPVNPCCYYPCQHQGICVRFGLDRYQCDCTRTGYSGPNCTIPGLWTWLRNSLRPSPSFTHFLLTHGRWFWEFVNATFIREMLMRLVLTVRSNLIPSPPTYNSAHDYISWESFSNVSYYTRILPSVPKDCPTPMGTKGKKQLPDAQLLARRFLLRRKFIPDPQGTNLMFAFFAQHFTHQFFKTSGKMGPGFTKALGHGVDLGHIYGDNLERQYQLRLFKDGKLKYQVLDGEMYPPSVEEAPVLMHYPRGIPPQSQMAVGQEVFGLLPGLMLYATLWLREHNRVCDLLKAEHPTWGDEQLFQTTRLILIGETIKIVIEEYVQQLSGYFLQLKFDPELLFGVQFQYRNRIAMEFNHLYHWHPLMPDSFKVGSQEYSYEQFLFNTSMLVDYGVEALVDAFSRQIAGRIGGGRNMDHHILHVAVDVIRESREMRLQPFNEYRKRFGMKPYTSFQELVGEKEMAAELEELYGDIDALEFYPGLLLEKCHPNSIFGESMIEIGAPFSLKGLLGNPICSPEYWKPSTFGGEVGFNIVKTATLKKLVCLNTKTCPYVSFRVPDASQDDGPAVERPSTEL
Assay: Inhibition of cyclooxygenase-1: PGE2 production in human U-937 cells, whole cell assay
Details: PGE2 synthesis in response to arachidonic acid, read-out: Cox-1 IC50
pIC50: −log10 of the molar value. Counter-ions that a name gives are not always drawn.
EXPERIMENTAL_ENDPOINT: pIC50

COc1ccc2c(c1)c(CC1(CC(=O)O)CC1)c(C)n2Cc1ccc(Br)cc1 [Example 2, sodium salt]
< 4.00
COc1ccc2c(c1)c(C[C@@H](C)CC(=O)O)c(C)n2Cc1ccc(Br)cc1 [Example 8]
< 5.00
Cc1c(CC(C)CC(=O)O)c2cc(Cl)ccc2n1Cc1ccc(Br)cc1 (racemic) [Example 34]
< 5.00
Cc1c(CCCC(=O)O)c2cc(Br)ccc2n1Cc1ccc(Br)cc1 [Example 24]
< 4.30
COc1ccc2c(c1)c(CC1(CC(=O)O)CC1)c(C)n2Cc1ccc(Cl)cc1 [Example 25]
< 4.60

Field: next compound
Inquiry: Given the compound COc1ccc2c(c1)c(CCCC(=O)O)c(C)n2Cc1ccc(Br)cc1 [Example 4] , what is its reported pIC50?
Reply text: < 5.00

----------
Molecular target: cyclooxygenase-2 (human osteosarcoma 143 cells) (Homo sapiens)
Construct: human osteosarcoma 143 cells (which specifically express cyclooxygenase-2); endogenous in cells; host or cells: human osteosarcoma 143 cells
Assay: Inhibition of cyclooxygenase-2: PGE2 production in human osteosarcoma 143 cells, whole cell assay
Type: cell-based
Structures can show the parent of a compound that is named as a salt.
EXPERIMENTAL_ENDPOINT: IC50 (nM)
Answer in nM, number only, no unit symbol.

Inquiry: I have this compound here, COc1ccc2c(c1)c(CC1(CC(=O)O)CC1)c(C)n2Cc1ccc(Br)cc1 [Example 2, sodium salt] , and I need its recorded IC50.
Reply text: 16
